Measured values drawn from the supplement of paper PMC7877785 for this set.

Each entry below carries its recorded self-splicing fitness (ln).
Assay: self-splicing fitness, log relative to wild type (ln ratio); higher = more splicing; Tetrahymena group I intron in knt gene, E. coli kanamycin selection, DiMSum; sequences stand for … in CUCUCU…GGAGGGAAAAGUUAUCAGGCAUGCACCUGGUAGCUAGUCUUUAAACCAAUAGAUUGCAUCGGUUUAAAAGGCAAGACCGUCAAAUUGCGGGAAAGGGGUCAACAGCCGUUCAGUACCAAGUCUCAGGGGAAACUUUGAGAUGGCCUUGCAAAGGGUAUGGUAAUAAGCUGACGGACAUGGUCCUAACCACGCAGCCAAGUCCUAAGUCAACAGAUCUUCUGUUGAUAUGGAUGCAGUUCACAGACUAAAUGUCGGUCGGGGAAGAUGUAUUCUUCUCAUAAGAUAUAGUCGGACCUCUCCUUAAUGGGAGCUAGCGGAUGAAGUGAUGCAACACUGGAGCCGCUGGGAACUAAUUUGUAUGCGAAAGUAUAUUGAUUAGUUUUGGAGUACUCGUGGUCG;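 note: selection with 25 µg/mL kanamycin versus none on LB agar overnight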
Conditions: 37 °C

| ORDERED RESIDUES | self-splicing fitness (ln) |
| --- | --- |
| CAAUAGCAAUAUUACGUAGC | -2.05 |
| AGCUAGCAAUAUUACGUAGG | -1.27 |
| UGUCAGCAAUAUUACGCGGU | -2.2 |
| UACAAGCAAUAUUACGGUGU | -1.71 |
| ACCGAGCAAUAUUACGCUGU | -0.834 |
| CUUAAGCAAUAUUACGUCAA | -2.33 |
